experimental parameters: H) like A) with bovine serum albumin; 24 h 37° C.
reported metric: Stability (% of remaining arachidonic acid by Method 1) (%)

| molecule smiles | value observed |
| --- | --- |
| NCCc1ccc(O)c(O)c1 | 100 |
| O=C(O)C=Cc1ccc(O)c(O)c1 | 99 |
| N[C@@H](CCC(=O)N[C@@H](CS)C(=O)NCC(=O)O)C(=O)O | 91 |

----------
system: UniProtKB P05979
Sequence (P05979 25-600): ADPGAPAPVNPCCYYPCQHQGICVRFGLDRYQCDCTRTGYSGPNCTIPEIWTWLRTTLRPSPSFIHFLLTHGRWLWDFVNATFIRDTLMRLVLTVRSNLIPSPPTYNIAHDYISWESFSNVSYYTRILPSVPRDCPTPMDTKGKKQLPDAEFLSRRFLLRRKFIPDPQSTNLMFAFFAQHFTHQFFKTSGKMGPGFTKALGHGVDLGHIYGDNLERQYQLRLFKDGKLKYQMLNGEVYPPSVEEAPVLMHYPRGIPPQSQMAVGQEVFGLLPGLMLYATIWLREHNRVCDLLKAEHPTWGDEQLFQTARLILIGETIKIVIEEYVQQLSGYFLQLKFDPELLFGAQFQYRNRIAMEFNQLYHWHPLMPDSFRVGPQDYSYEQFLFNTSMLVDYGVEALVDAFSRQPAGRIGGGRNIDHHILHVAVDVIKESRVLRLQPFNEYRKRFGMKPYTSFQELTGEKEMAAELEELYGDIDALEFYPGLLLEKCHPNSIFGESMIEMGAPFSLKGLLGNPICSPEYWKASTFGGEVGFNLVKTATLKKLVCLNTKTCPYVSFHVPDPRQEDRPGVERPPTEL
experimental parameters: Table 1; share of total prostaglandin (=100%)
Use 1 when the recorded PGE2 % is no lower than 60%; use 0 when it is lower.

| compound | category label |
| --- | --- |
| COc1cc(C(=O)O)ccc1O [Example 15] | 1 |
| N[C@@H](CS)C(=O)O [Example 33, L-cysteine] | 0 |
| Oc1ccc(O)cc1 [Example 14] | 1 |
| CNCC(O)c1ccc(O)c(O)c1 (stereo not shown) [Example 13] | 1 |
| O=C(O)C=Cc1ccc(O)c(O)c1 [Example 17] | 1 |
| NCCc1ccc(O)c(O)c1 [Example 10] | 0 |

----------
system: enzyme (from seminal vesicles of sheep) (Ovis aries, UniProt P05979)
experimental parameters: Table 2; share of total prostaglandin
Each entry below carries its recorded PGF2alpha %.

| compound | units text | PGF2alpha % |
| --- | --- | --- |
| O=c1c(O)c(-c2ccc(O)cc2O)oc2cc(O)cc(O)c12 [Example 61, Morin] | % | 27 |
| O=c1c(O)c(-c2ccc(O)c(O)c2)oc2cc(O)cc(O)c12 [Example 57, Quercetin] | % | 18 |
| Oc1cc(O)c2c(c1)O[C@H](c1ccc(O)c(O)c1)[C@H](O)C2 [Example 59, Epicatechin] | % | 17 |
| O=C(CCc1ccc(O)cc1)c1c(O)cc(O)cc1O [Example 60, Phloretin] | % | 11 |
| Oc1cc(O)c2c(c1)OC(c1ccc(O)c(O)c1)C(O)C2 (centres unmarked) [Example 58, Catechin] | % | 18 |

----------
system: enzyme (from seminal vesicles of sheep) (Ovis aries, UniProt P05979)
experimental parameters: seminal vesicle enzyme, 10 min, pH 8
Each entry below carries its recorded relative total prostaglandin f.

| compound | system | relative total prostaglandin f |
| --- | --- | --- |
| O=C(O)CCCC[C@@H](S)CCS (racemic) [Example 42, Dihydrolipoic acid, reference compound] | enzyme (from seminal vesicles of sheep) (Ovis aries, UniProt P05979) | 1.0 |
| N[C@@H](CSSC[C@H](N)C(=O)O)C(=O)O [Example 41, Cystine, reference compound] | enzyme (from seminal vesicles of sheep) (Ovis aries, UniProt P05979) | 1.0 |
| CC(C)(COP(=O)(O)OP(=O)(O)OC[C@H]1O[C@@H](n2cnc3c(N)ncnc32)[C@H](O)[C@@H]1OP(=O)(O)O)[C@@H](O)C(=O)NCCC(=O)NCCS [Example 45, Coenzyme A, reference compound] | enzyme (from seminal vesicles of sheep) (Ovis aries, UniProt P05979) | 1.0 |
| O=C1C[C@@H](c2ccc(O)cc2)Oc2cc(O)cc(O)c21 [Example 55, Naringenin] | enzyme (from seminal vesicles of sheep) (Ovis aries, UniProt P05979) | 1.5 |
| NC(Cc1ccc(O)c(O)c1)C(=O)O (stereo not shown) [Example 9] | enzyme (from seminal vesicles of sheep) (Ovis aries, UniProt P05979) | 9.4 |
| C[C@@H]1O[C@@H](OC[C@H]2O[C@@H](Oc3c(-c4ccc(O)c(O)c4)oc4cc(O)cc(O)c4c3=O)[C@H](O)[C@@H](O)[C@@H]2O)[C@H](O)[C@H](O)[C@H]1O [Example 52, Rutin] | enzyme (from seminal vesicles of sheep) (Ovis aries, UniProt P05979) | 6 |

----------
system: enzyme (from seminal vesicles of sheep) (Ovis aries)
experimental parameters: Table 1; share of total prostaglandin (=100%)
reported metric: PGE2 % (%)

| compound | reported metric | value observed |
| --- | --- | --- |
| O=C(O)CCc1c[nH]c2ccccc12 | PGE2 % | 82 |
| Oc1ccccc1 [Example 3, phenol, reference compound] | PGE2 % | 77 |
| O=C(O)CCc1ccc(O)cc1 | PGE2 % | 83 |
| Cc1cccc(O)c1 [Example 2, m-cresol, reference compound] | PGE2 % | 98 |
| NC(Cc1c[nH]c2ccc(O)cc12)C(=O)O (centres unmarked) | PGE2 % | 79 |
| NC(Cc1ccc(O)cc1)C(=O)O (centres unmarked) | PGE2 % | 81 |
| NC(Cc1ccc(O)c(O)c1)C(=O)O (centres unmarked) | PGE2 % | 70 |
| O=C(O)c1ccc(O)cc1 | PGE2 % | 69 |

----------
system: enzyme (from seminal vesicles of sheep) (Ovis aries)
experimental parameters: Table 1; share of total prostaglandin (=100%)
reported metric: PGF2alpha %

| compound | reported metric | value observed |
| --- | --- | --- |
| O=C(O)CCc1c[nH]c2ccc(O)cc12 [Example 21] | PGF2alpha % | 3% |
| NC(Cc1ccc(O)c(O)c1)C(=O)O (stereo not shown) [Example 9] | PGF2alpha % | 14% |
| N[C@@H](CSSC[C@H](N)C(=O)O)C(=O)O [Example 41, Cystine, reference compound] | PGF2alpha % | 0% |
| NCC(O)c1ccc(O)c(O)c1 (stereo not shown) [Example 12] | PGF2alpha % | 17% |
| Oc1ccccc1 [Example 3, phenol, reference compound] | PGF2alpha % | 5% |
| N[C@@H](CCC(=O)N[C@@H](CS)C(=O)NCC(=O)O)C(=O)O [Example 35, Glutathione] | PGF2alpha % | 0% |
| COc1cc(C(=O)O)ccc1O [Example 15] | PGF2alpha % | 12% |
| CC(=O)NC(CS)C(=O)O (stereo not shown) [Example 37, NAcetylcysteine] | PGF2alpha % | 14% |
| Oc1ccc(O)cc1 [Example 14] | PGF2alpha % | 12% |
| O=C(O)C=Cc1ccc(O)c(O)c1 [Example 17] | PGF2alpha % | 13% |
| N[C@H](CS)C(=O)O [Example 34, D-cysteine] | PGF2alpha % | 14% |
| Cc1cccc(O)c1 [Example 2, m-cresol, reference compound] | PGF2alpha % | 0% |
| O=C(O)c1ccc(O)cc1 [Example 16] | PGF2alpha % | 13% |
